Test: qHTS assay to identify small molecule antagonists of the TGF-beta/Smad signaling pathway - cell viability counter screen (AID 1346824); also: nearly all actives have a fitted effect of over 50% in size
Settings: SBE-bla HEK293T viability, CellTiter-Glo luminescence; series mostly up to 76.8 µM
Results filed as inconclusive are left out. The source made the active and inactive calls. Calls follow the shape of the dose curve; as a rule, active = well fitted cell-killing curve with a large enough effect in the repeat runs; inconclusive = weak or mixed curves; inactive = flat fitted curve, though single readings scatter.
Recorded Metric: viability change, negative = cytotoxic

Solved entries:
| Chem Smiles | Value Observed |
| --- | --- |
| OC[C@H](Cc1cccc(O)c1)[C@H](CO)Cc1cccc(O)c1 | inactive |
| CC(=O)NCCCCCC(=O)O | inactive |
| N[C@@H](CCC(=O)Nc1ccc([N+](=O)[O-])cc1)C(=O)O | inactive |
| O=C(O)c1cc(Cl)cc([N+](=O)[O-])c1Cl | inactive |
| O=C(O)Cc1ccc(Cl)cc1Cl | inactive |
| Cc1ccc2ccc(Cl)cc2n1 | inactive |
| CC(=O)N[C@@H](CCC(=O)O)C(=O)O | inactive |
| CCC(CC)CO | inactive |

[in] Look up viability change, negative = cytotoxic: O=C(O)CCSSCCC(=O)O
[out] inactive

[in] Which viability change, negative = cytotoxic value belongs to CC1(C)S[C@@H]2[C@H](N=CN3CCCCCC3)C(=O)N2[C@H]1C(=O)O ?
[out] inactive

[in] Would you mind telling me what viability change, negative = cytotoxic value was observed for CO[C@@H]1[C@@H](OC(N)=O)[C@@H](O)[C@H](Oc2ccc3c(O)c(NC(=O)c4ccc(O)c(CC=C(C)C)c4)c(=O)oc3c2C)OC1(C)C ?
[out] inactive

[in] # input molecule: CCOC(=O)c1ncn2c1CN(C)C(=O)c1cc(F)ccc1-2 ; wanted: its viability change, negative = cytotoxic
[out] inactive
